# System: Mus musculus
# Method Notes: Dose at which mouse exhibited ataxia using the inverted screen procedure at 30 min post administration
# Type: functional
Property Label: MAD (mg/kg)
Respond numerically; units are mg/kg and should not be typed.

INSERT INTO results (substance_smiles, test_system, measurement) VALUES
  ('CC(C)(C)c1cc[n+]([O-])cc1Oc1ccccc1', 'Mus musculus', 100),
  ('N#Cc1cc[n+]([O-])cc1Oc1ccccc1', 'Mus musculus', 300),
  ('[O-][n+]1ccc(CO)c(Oc2ccccc2)c1', 'Mus musculus', 30);

# input compound: c1ccc2c(c1)Cc1ccncc1O2 ; wanted: its MAD
300

Another compound to check: CC(C)c1cc[n+]([O-])cc1Oc1ccccc1
100

Another compound to check: Cc1cc[n+]([O-])cc1Oc1ccccc1
100

Another compound to check: CCc1cc[n+]([O-])cc1Oc1ccccc1
100

Another compound to check: O=S(=O)(O)O.c1ccc(Oc2cccnc2)cc1
300

Another compound to check: OCc1ccncc1Oc1ccccc1
300

Another compound to check: Cc1c(Oc2ccccc2)ccc[n+]1[O-]
300

Another compound to check: [O-][n+]1cccc(Oc2ccccc2)c1
300

Another compound to check: [O-][n+]1ccc(C2CCCCC2)c(Oc2ccccc2)c1
300

Another compound to check: Cc1cc(Oc2ccccc2)c[n+]([O-])c1
300

Another compound to check: COc1ccc(Oc2c[n+]([O-])ccc2C)cc1
300

Another compound to check: Cc1cc[n+]([O-])cc1Oc1ccc(Cl)cc1
100

Another compound to check: O=c1c2ccccc2oc2c[n+]([O-])ccc12
300

Another compound to check: Cc1ccc(Oc2c[n+]([O-])ccc2C)cc1
300

Another compound to check: [O-][n+]1ccc(Cl)c(Oc2ccccc2)c1
300
